- tested.target: HDAC8 (Homo sapiens, UniProt Q9BY41)
- Sequence (Q9BY41 1-377): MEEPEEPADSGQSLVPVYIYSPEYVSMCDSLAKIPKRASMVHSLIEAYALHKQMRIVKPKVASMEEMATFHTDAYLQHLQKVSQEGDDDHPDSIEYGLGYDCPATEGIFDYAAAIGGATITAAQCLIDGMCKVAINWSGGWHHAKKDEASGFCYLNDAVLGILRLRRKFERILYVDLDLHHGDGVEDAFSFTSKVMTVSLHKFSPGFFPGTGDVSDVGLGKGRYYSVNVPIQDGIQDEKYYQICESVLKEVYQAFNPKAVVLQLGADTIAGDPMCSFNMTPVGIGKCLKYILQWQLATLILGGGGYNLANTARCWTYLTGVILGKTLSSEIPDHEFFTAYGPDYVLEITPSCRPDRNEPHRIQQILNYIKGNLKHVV
- procedure.summary: biochemical
- Parameters: Fluorescence HDAC isoenzyme deacetylase activity assay, excitation 360 nm, emission 460 nm
- condition.set: read-out: IC50 (nM)^1 / Martinostat
- Experimental: HDAC activity assays were performed as previously reported. The fluorescence signal was measured using a SpectraMax i3x fluorimeter (Molecular Devices Korea) with SoftMax Pro software at an excitation wavelength of 360 nm and an emission wavelength of 460 nm. […] We conducted total HDAC activity assays to assess the effect of martinostat on the deacetylase activity in vitro.
result.type: IC50

What IC50 value was documented for this compound, CN(Cc1ccc(/C=C/C(=O)NO)cc1)CC12CC3CC(CC(C3)C1)C2 ?
1650 nM

From: paper PMC12269308
